Collected Signal/Blank values appear next to each entry.
# system: T1, Recombinant Human DLL4 (delta-like protein 4) (human, UniProt Q9NR61 27-524)
# T1 construct: Bought recombinant human DLL4 (R&D Systems Cat#1506-D4/CF); also called rHuman DLL4
# test-summary: ECL (MSD) multispot binding assay, antigen spotted on plate, Fab in solution;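 further: purified Fab incubated 1 h at 20 °C, detected via TAG-labelled antibody electrochemiluminescence, antigen spot compared with the blank in the same well, ratio at least 4 counted as hit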
Keep it simple and answer with nothing but the number.

Study these solved cases before continuing.
[[record]]
binder = "Fab VH1-46_IGHD6-6*01_IGHJ1*01 S102A/S103P/S104F/H111F (APFF) & L6_IGKJ1*01 S30A (Fab, V domains shown, Fab made in E. coli; The constant parts (CH1 with His6 and Flag tags from plasmid A, kappa CL from plasmid C) are not added here; also called APFF & S30A) VH: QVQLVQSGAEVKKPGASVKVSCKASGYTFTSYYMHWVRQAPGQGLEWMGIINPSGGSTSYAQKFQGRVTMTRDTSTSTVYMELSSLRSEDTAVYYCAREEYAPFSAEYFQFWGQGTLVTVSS VL: EIVLTQSPATLSLSPGERATLSCRASQSVASYLAWYQQKPGQAPRLLIYDASNRATGIPARFSGSGSGTDFTLTISSLEPEDFAVYYCQQRSNWPPWTFGQGTKVEIKR"
measured_metric = "Signal/Blank"
observed_result = 1010

[[record]]
binder = "Fab VH1-46_IGHD6-6*01_IGHJ1*01 S102A/S103P/S104F/H111F (APFF) & L6_IGKJ1*01 S31A (Fab, V domains shown, Fab made in E. coli; The constant parts (CH1 with His6 and Flag tags from plasmid A, kappa CL from plasmid C) are not added here; also called APFF & S31A) VH: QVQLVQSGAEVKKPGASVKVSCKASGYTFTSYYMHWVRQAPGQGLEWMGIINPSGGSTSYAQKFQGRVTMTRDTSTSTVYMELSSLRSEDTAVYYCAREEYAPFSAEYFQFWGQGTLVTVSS VL: EIVLTQSPATLSLSPGERATLSCRASQSVSAYLAWYQQKPGQAPRLLIYDASNRATGIPARFSGSGSGTDFTLTISSLEPEDFAVYYCQQRSNWPPWTFGQGTKVEIKR"
measured_metric = "Signal/Blank"
observed_result = 882

[[record]]
binder = "Fab VH1-46_IGHD6-6*01_IGHJ1*01 S102A/S103P/S104F/H111F (APFF) & L6_IGKJ1*01 S31Q (Fab, V domains shown, Fab made in E. coli; The constant parts (CH1 with His6 and Flag tags from plasmid A, kappa CL from plasmid C) are not added here; also called APFF & S31Q) VH: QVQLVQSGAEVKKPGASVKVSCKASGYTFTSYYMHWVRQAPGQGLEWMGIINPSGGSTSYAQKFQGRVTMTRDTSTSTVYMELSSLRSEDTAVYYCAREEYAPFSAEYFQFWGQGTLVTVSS VL: EIVLTQSPATLSLSPGERATLSCRASQSVSQYLAWYQQKPGQAPRLLIYDASNRATGIPARFSGSGSGTDFTLTISSLEPEDFAVYYCQQRSNWPPWTFGQGTKVEIKR"
measured_metric = "Signal/Blank"
observed_result = 406

[[record]]
binder = "Fab VH1-46_IGHD6-6*01_IGHJ1*01 S102A/S103P/S104F/H111F (APFF) & L6_IGKJ1*01 S31D (Fab, V domains shown, Fab made in E. coli; The constant parts (CH1 with His6 and Flag tags from plasmid A, kappa CL from plasmid C) are not added here; also called APFF & S31D) VH: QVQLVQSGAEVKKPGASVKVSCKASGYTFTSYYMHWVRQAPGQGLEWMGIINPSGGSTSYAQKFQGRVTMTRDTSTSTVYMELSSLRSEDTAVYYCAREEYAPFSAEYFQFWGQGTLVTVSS VL: EIVLTQSPATLSLSPGERATLSCRASQSVSDYLAWYQQKPGQAPRLLIYDASNRATGIPARFSGSGSGTDFTLTISSLEPEDFAVYYCQQRSNWPPWTFGQGTKVEIKR"
measured_metric = "Signal/Blank"
observed_result = 313


// below: Signal/Blank requested for another binder
Exercise: Quick one: Signal/Blank of Fab VH1-46_IGHD6-6*01_IGHJ1*01 S102A/S103P/S104F/H111F (APFF) & L6_IGKJ1*01 S30G (Fab, V domains shown, Fab made in E. coli; The constant parts (CH1 with His6 and Flag tags from plasmid A, kappa CL from plasmid C) are not added here; also called APFF & S30G) VH: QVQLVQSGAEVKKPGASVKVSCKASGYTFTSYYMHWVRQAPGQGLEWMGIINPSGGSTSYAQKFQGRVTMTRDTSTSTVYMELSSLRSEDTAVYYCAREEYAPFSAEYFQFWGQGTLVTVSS VL: EIVLTQSPATLSLSPGERATLSCRASQSVGSYLAWYQQKPGQAPRLLIYDASNRATGIPARFSGSGSGTDFTLTISSLEPEDFAVYYCQQRSNWPPWTFGQGTKVEIKR ?
Key: 506
